Biological target: Mannose-6-phosphate isomerase (Homo sapiens)
Assay: MPI inhibition at elevated mannose 6-phosphate – biochemical, fluorescence intensity, high mannose 6-phosphate, primary screen (AID 1220)
Details: recombinant PMI enzyme, coupled fluorescence intensity; at 20 µM; stronger effect = higher value
Among all 190,000 compounds or so, about 1,300 (0.68%) were called active. Many of the other results were omitted from the sample, so actives are more common in it than they were.
Measurement name: inhibition (%)
Give bare numbers, in %.

Given smiles: Cc1cccc(C(=O)NCCc2nnc(SCC(=O)Nc3nc(C)cs3)n2C)c1
inhibition, %: 4

// batch mode: one inhibition value per listed entry
1. COc1ccc(CNS(=O)(=O)NCc2ccc(C)cc2)cc1
2. CCNc1nc(NC(C)C)nc(N(n2cnnc2)S(=O)(=O)c2ccc(C)cc2)n1
3. CCOc1ccccc1-c1nc(-c2ccc(NC(=O)Cc3ccc(OC)cc3)cc2)no1
4. O=C(C/C=N/OCc1ccc(F)cc1Cl)c1cnc(-c2ccccc2)s1

1. -7.2
2. 5.3
3. -5.8
4. -2.1
